# measurement.protocol: refractive index (Na D-line) (dimensionless)
# experimental.parameters: 293.15 K; 101.33 kPa; Liquid; Standard Abbe refractometry
measurement.kind: refractive index
Give only the figure.

| compound | recorded.value |
| --- | --- |
| CCCC(=O)O | 1.3975 |

Give refractive index for the following compound: COC(=O)CCCCC(=O)OC [dimethyl 1,6-hexanedioate]
1.42825

Give refractive index for the following compound: COC(=O)CCC(=O)OC [dimethyl 1,4-butanedioate]
1.41969

Give refractive index for the following compound: COC(=O)CCCC(=O)OC [dimethyl pentanedioate]
1.42454

====

Entries and their measured mass density follow.
# experimental.parameters: 293.15 K; 101.33 kPa; Liquid
± gives the expanded uncertainty stated by the source.
Please answer in the form of a number followed by its unit of measurement.

Examples from the recorded data:
| compound | mass density |
| --- | --- |
| COC(=O)CCCC(=O)OC [dimethyl pentanedioate] | 1087.67 ± 0.76 kg/m3 |
| COC(=O)CCC(=O)OC [dimethyl 1,4-butanedioate] | 1119.13 ± 2.3 kg/m3 |
| COC(=O)CCCCC(=O)OC [dimethyl 1,6-hexanedioate] | 1061.72 ± 0.67 kg/m3 |

Give mass density for the following compound: CCCC(=O)O
952.8 ± 0.58 kg/m3
